- Test system: fcwf-4 cells
- PROCEDURE TEXT: Cell viability by MTT assay
- Format: cell-based, Felis catus
- REPORTED CONDITIONS: fcwf-4 cells, 72 h, MTT
MEASURED PARAMETER: CC50

[in] GET /values?readout=CC50&system=fcwf-4 cells&item= Cc1ccnc2c1NC(=O)c1cccnc1N2C1CC1
[out] ≥ 46.9 µM

====

- PROCEDURE TEXT: Cell viability by MTT assay
- Assay type: cell-based, Felis catus
- REPORTED CONDITIONS: cat (Felis catus), fcwf-4 cells
MEASURED PARAMETER: CC50 at 72 h (µM)
The answer is to be given in µM; state only the numeric part.

In the examples that follow, each entry is paired with its recorded CC50 at 72 h.
O=C1Nc2ccc(Cl)cc2[C@@](C#CC2CC2)(C(F)(F)F)O1	52.1
CC(C)(C)NC(=O)[C@@H]1C[C@@H]2CCCC[C@@H]2CN1C[C@@H](O)[C@H](Cc1ccccc1)NC(=O)[C@H](CC(N)=O)NC(=O)c1ccc2ccccc2n1	95.8
Cc1cc(O)c2c(c1)C(=O)c1cc(O)cc(O)c1C2=O	67.4

[in] So what does the record say about CC50 at 72 h for Cc1c(O)cccc1C(=O)N[C@@H](CSc1ccccc1)[C@H](O)CN1C[C@H]2CCCC[C@H]2C[C@H]1C(=O)NC(C)(C)C ?
[out] 11.5

[in] Form field: reported CC50 at 72 h of COC(=O)N[C@H](C(=O)N[C@@H](Cc1ccccc1)[C@@H](O)CN(Cc1ccc(-c2ccccn2)cc1)NC(=O)[C@@H](NC(=O)OC)C(C)(C)C)C(C)(C)C
[out] 48.6

Recorded values, source paper PMC7114315.
